# Test system: C. elegans
# settings: Table S2, C. elegans SS assay, 110 μM, 0 h, averages of 4 data points
Would you mind telling me the reported Percentage of motility inhibition 0 h of each entry?
Note: unit % is implicit; provide only the numeric part.

q: Record request: Percentage of motility inhibition 0 h value, item CC(C)OC(=O)OCOP(=O)(CO[C@H](C)Cn1cnc2c(N)ncnc21)OCOC(=O)OC(C)C.O=C(O)/C=C/C(=O)O [Tenofovir (Disoproxil Fumarate)]
a: 5

q: Another compound to check: CCCCC1OC(=O)c2ccccc21 (stereo not drawn) [Butylphthalide]
a: 0

q: Another compound to check: C=C(CCC=C(C)C)[C@@H]1CC=C(C)CC1
a: 8

###

Would you mind telling me the reported inhibition at 110 µM of each entry?
# Test system: C. elegans
# assay_summary: microbe, parasite or virus in culture
# settings: Caenorhabditis elegans, 0 h, read-out: Percentage of motility inhibition 0 h, Table S2, C. elegans SS assay, 110 μM, 0 h, averages of 4 data points
Note: unit % is implicit; provide only the numeric part.

q: Record request: inhibition at 110 µM value, item CC(C)(C)NCC(O)c1cc(O)cc(O)c1 (stereo not shown)
a: 9

q: Another compound to check: NC(=O)c1cnccn1 [Pyrazinamide]
a: 4

q: Another compound to check: CC(C)OC(=O)[C@H](C)N[P@](=O)(OC[C@H]1O[C@@H](n2ccc(=O)[nH]c2=O)[C@](C)(F)[C@@H]1O)Oc1ccccc1
a: 6

q: Another compound to check: COc1cc2c(cc1OC)[C@@H]1C(=O)c3ccc4c(c3O[C@@H]1CO2)C=CC(C)(C)O4
a: 0

q: Another compound to check: Nc1ccc(S(=O)(=O)c2ccc(N)cc2)cc1
a: 42

q: Another compound to check: C=C1C(=O)O[C@@H]2/C=C(\C)CC/C=C(\C)CC[C@@H]12 [Costunolide]
a: 0

q: Another compound to check: O=C(O)c1c[nH]c2ccccc12
a: 0

###

# Test system: C. elegans
# assay_summary: microbe, parasite or virus in culture
# settings: Caenorhabditis elegans, 0 h, read-out: Percentage of motility inhibition 0 h, Table S2, C. elegans SS assay, 110 μM, 0 h, averages of 4 data points
Entry flag: yes (1) if inhibition at 110 µM reaches 2%; no (0) if it does not.

q: Would you say CC1(C)CC[C@]2(C(=O)O[C@@H]3O[C@H](CO)[C@@H](O)[C@H](O)[C@H]3O)CC[C@]3(C)C(=CC[C@@H]4[C@@]5(C)CC[C@H](O[C@@H]6O[C@H](C(=O)O)[C@@H](O)[C@H](O)[C@H]6O)C(C)(C)[C@@H]5CC[C@]43C)[C@@H]2C1 shows inhibition at 110 µM at minimum 2%?
a: yes (1)

q: Another compound to check: CC(C)=CCC/C(C)=C/Cc1c(O)c(CC=C(C)C)c2c(c1O)C(=O)C1=C[C@@H]3C[C@H]4C(C)(C)O[C@@](C/C=C(/C)C(=O)O)(C3=O)[C@@]14O2
a: no (0)

q: Another compound to check: Fc1ccccc1-c1nc2ccn(Cc3ccc(-c4ccc(C(F)(F)F)cc4C(F)(F)F)nn3)cc-2n1
a: yes (1)

q: Another compound to check: CC1OC(OCC2OC(Oc3c(-c4ccc(O)cc4)oc4cc(OC5OC(C)C(O)C(O)C5O)cc(O)c4c3=O)C(O)C(O)C2O)C(O)C(O)C1O (stereo not shown)
a: yes (1)

q: Another compound to check: CC[C@@H]1CN2CC[C@]3(C(=O)Nc4ccccc43)[C@@H]2C[C@@H]1/C(=C\OC)C(=O)OC
a: yes (1)

q: Another compound to check: C[C@@H](O)[C@H]1C(=O)N2C(C(=O)O)=C(SC3CN(C4=NCCS4)C3)[C@H](C)[C@H]12
a: no (0)

q: Another compound to check: N[C@@H]1CON=C1O
a: yes (1)

q: Another compound to check: CC(C)(C)C(=O)OCOP(=O)(COCCn1cnc2c(N)ncnc21)OCOC(=O)C(C)(C)C
a: yes (1)

q: Another compound to check: C=C(C)[C@@H]1CC[C@]2(C(=O)O)CC[C@]3(C)[C@H](CC[C@@H]4[C@@]5(C)CC[C@@H](O)C(C)(C)[C@@H]5CC[C@]43C)[C@@H]12 [Epibetulinic acid]
a: yes (1)

q: Another compound to check: Nc1ncnc2c1ccn2[C@@H]1O[C@H](CO)[C@@H](O)[C@H]1O
a: yes (1)

q: Another compound to check: CC(C)/N=c1\cc2n(-c3ccc(Cl)cc3)c3ccccc3nc-2cc1Nc1ccc(Cl)cc1
a: yes (1)

q: Another compound to check: Nc1ccc(S(N)(=O)=O)cc1 [Sulfanilamide]
a: yes (1)

###

Would you mind telling me the reported Percentage of motility inhibition 0 h of each entry?
# Tested on: C. elegans
# settings: Table S2, C. elegans SS assay, 110 μM, 0 h, averages of 4 data points
Note: unit % is implicit; provide only the numeric part.

q: Item C[C@@H]1O[C@@H](O[C@H]2[C@H](Oc3c(-c4ccc(O)cc4)oc4cc(O)cc(O)c4c3=O)O[C@H](CO)[C@@H](O)[C@@H]2O)[C@H](O)[C@H](O)[C@H]1O [Kaempferol‐3‐O‐glucorhamnoside] with C. elegans - Percentage of motility inhibition 0 h?
a: 5

q: Another compound to check: CC1(C)[C@H]2O[C@H]2[C@H]2[C@](C)(O)[C@@H]3CC[C@@H]4[C@@H](O)[C@@]3(C[C@@H](O)[C@@]21O)C[C@@]4(C)O
a: 5

q: Another compound to check: C[C@@H](CO[C@@H]1O[C@H](CO)[C@@H](O)[C@H](O)[C@H]1O)[C@@H]1CC[C@@]2(CC[C@]3(C)[C@H](CC[C@@H]4[C@@]5(C)CC[C@H](O[C@@H]6O[C@H](CO)[C@@H](O)[C@H](O)[C@H]6O[C@@H]6OC[C@@H](O)[C@H](O)[C@H]6O)[C@@](C)(CO[C@@H]6O[C@H](CO)[C@@H](O)[C@H](O)[C@H]6O)[C@@H]5CC[C@]43C)[C@H]2O)CO1 [Hosenkoside M]
a: 5

###

Would you mind telling me the reported inhibition at 110 µM of each entry?
# Tested on: C. elegans
# assay_summary: microbe, parasite or virus in culture
# settings: Caenorhabditis elegans, 0 h, read-out: Percentage of motility inhibition 0 h, Table S2, C. elegans SS assay, 110 μM, 0 h, averages of 4 data points
Note: unit % is implicit; provide only the numeric part.

q: Record request: inhibition at 110 µM value, item O=C(Nc1ccc(Oc2ccc(Cl)cc2)c(Cl)c1)c1cc(I)cc(I)c1O [Rafoxanide]
a: 8

q: Another compound to check: Cc1cccc(N(C)C(=S)Oc2ccc3ccccc3c2)c1 [Tolnaftate]
a: 25

q: Another compound to check: C=C1CC[C@H]2C(=C)CC[C@H]3C(=C)C(=O)O[C@@H]3[C@@H]12 [Dehydrocostus Lactone]
a: 0

q: Another compound to check: COc1ccc(-c2oc3cc(O)cc(O)c3c(=O)c2O)cc1 [Kaempferide]
a: 49

q: Another compound to check: C=C1CC[C@@H]2[C@](C)(CO[C@@H]3O[C@H](CO)[C@@H](O)[C@H](O)[C@H]3O)CCC[C@@]2(C)[C@@H]1CCC1=CCOC1=O [Neoandrographolide]
a: 15

q: Another compound to check: C=CCOC(Cn1ccnc1)c1ccc(Cl)cc1Cl (stereo not drawn) [Imazalil]
a: 35

q: Another compound to check: C[C@@H]1C[C@@H](O)[C@@]2(O)[C@@]13C[C@@H](OC(=O)[C@H]3O)[C@](C)(O)[C@@]21COC1=O [Anisatin]
a: 0

q: Another compound to check: CCN(CC)CCNc1ccc(CO)c2sc3ccccc3c(=O)c12 [Hycanthone]
a: 31

q: Another compound to check: COc1cc(-c2coc3cc(O)c(OC)c(O)c3c2=O)cc(O)c1OC [Irigenin]
a: 14

q: Another compound to check: Nc1ccn([C@H]2CC[C@@H](CO)O2)c(=O)n1 [Zalcitabine]
a: 19

q: Another compound to check: CCCc1cc(C(N)=S)ccn1 [Prothionamide]
a: 44

q: Another compound to check: COc1cc(-c2oc3cc(O)cc(O)c3c(=O)c2O[C@@H]2O[C@H](CO[C@@H]3O[C@@H](C)[C@H](O)[C@@H](O)[C@H]3O)[C@@H](O)[C@H](O)[C@H]2O)ccc1O [Narcissin]
a: 42

q: Another compound to check: C[N+](C)(C)[C@@H](Cc1c[nH]c2ccccc12)C(=O)[O-] [Hypaphorine]
a: 0

q: Another compound to check: C/C(C=O)=C\CC[C@@H](C)[C@H]1CC[C@@]2(C)C3=CC[C@H]4C(C)(C)C(=O)CC[C@]4(C)C3=CC[C@]12C [Ganoderal A]
a: 7

q: Another compound to check: O=C(O)CC(O)(CC(=O)O)C(=O)O [Citric acid]
a: 0

q: Another compound to check: NC(=O)CC[C@H](N)C(=O)O [L-Glutamine]
a: 3

q: Another compound to check: Cc1coc2c1C(=O)C(=O)c1c-2ccc2c(C)cccc12 [Tanshinone I]
a: 0

q: Another compound to check: CC(C)=CCC[C@](C)(O[C@@H]1O[C@H](CO[C@@H]2OC[C@@H](O)[C@H](O)[C@H]2O)[C@@H](O)[C@H](O)[C@H]1O)[C@H]1CC[C@]2(C)[C@@H]1[C@H](O)C[C@@H]1[C@@]3(C)CC[C@H](O[C@@H]4O[C@H](CO)[C@@H](O)[C@H](O)[C@H]4O[C@@H]4O[C@H](CO)[C@@H](O)[C@H](O)[C@H]4O)C(C)(C)[C@@H]3CC[C@]12C [Ginsenoside Rb3]
a: 6

q: Another compound to check: COC(=O)[C@@H]1[C@H]2C[C@H]3c4[nH]c5ccccc5c4CCN3C[C@@H]2CC[C@@H]1O [Yohimbine]
a: 7

q: Another compound to check: COc1c(/C=C/C(=O)c2ccc(O)c(CC=C(C)C)c2)ccc(O)c1O [Licochal cone D]
a: 15

q: Another compound to check: N#Cc1ccc(C(c2ccc(C#N)cc2)n2cncn2)cc1 [Letrozole]
a: 0

q: Another compound to check: COC(=O)c1cc(OC)c2c(c1-c1c(CO)cc(OC)c3c1OCO3)OCO2 [Bicyclol]
a: 23

q: Another compound to check: CC(=O)OCC1=C[C@H](O)[C@@H]2C(C(=O)O)=CO[C@@H](O[C@@H]3O[C@H](CO)[C@@H](O)[C@H](O)[C@H]3O)[C@H]12 [Asperulosidic Acid]
a: 2

q: Another compound to check: O[C@H]1[C@H](O)[C@@H](O)[C@H](O)[C@@H](O)[C@H]1O [i-Inositol]
a: 0

q: Another compound to check: COc1ccc2cc1Oc1ccc(cc1)C[C@H]1c3cc(c(OC)cc3CCN1C)Oc1c(O)c(OC)cc3c1[C@H](C2)N(C)CC3 [Fangchinoline]
a: 0

q: Another compound to check: C/C1=C\CCC2=C[C@@H](OC2=O)c2c(C)coc2C1 [Linderalactone]
a: 0

q: Another compound to check: C=CCCCCCCCCC(=O)O [10‐Undecenoic acid]
a: 60
